B1: CPEB3 Ribozyme (parent)
chain: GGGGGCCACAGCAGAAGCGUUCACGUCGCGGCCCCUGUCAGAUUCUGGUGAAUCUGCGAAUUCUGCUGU

Variants of: B1
Assay: self-cleavage, relative activity (ratio to wild type); higher = more cleavage; co-transcriptional
Classification scheme (self-cleavage): Low: < 0.3; Mid: ≥ 0.3 and < 0.9; High: ≥ 0.9

Sequence text: GGGGGCCAGAGCAGAAGCGUUCACGUGGCGGCCCCUGUCAGAUUCUGGUGAAUCUGCGAAUUCUGCUGU
Assigned class: Low

Sequence text: CGGGGCCACAGCAGAAGCGUUCAUGUCGCGGCCCCUGUCAGAUUCUGGUGAAUCUGCGAAUUCUGCUGU
Assigned class: Low

Sequence text: GGGGGCCACGGCAGAAGCGUUCACGUCGCGGCCCCUUUCAGAUUCUGGUGAAUCUGCGAAUUCUGCUGU
Assigned class: Low

Sequence text: GGGGGCCACAGCAGAAGCGUUCACGUGGCGGCCCCUGUCAGAGUCUGGUGAAUCUGCGAAUUCUGCUGU
Assigned class: Low

Sequence text: GGGGGCCACAGCAGAAGCGUUCACGUCGCGGACCCUGUCAGAUUCUGGUGAAUCUGCGAAUUCUGCUGA
Assigned class: High

Exercise: Please indicate the class for `GGGGUCCAGAGCAGAAGCGUUCACGUCGCGGCCCCUGUCAGAUUCUGGUGAAUCUGCGAAUUCUGCUGU` based on its self-cleavage.
Solution: Mid

Exercise: Class for `GUGAGCCACAGCAGAAGCGUUCACGUCGCGGCCCCUGUCAGAUUCUGGUGAAUCUGCGAAUUCUGCUGU` ?
Solution: Low

Exercise: For `GGGGGCCACAGCAGAAGCGUUCACGUCGCGGCCCCUGCCAGAUUCUCGUGAAUCUGCGAAUUCUGCUGU` , which self-cleavage bin applies?
Solution: High

Exercise: Which category fits this record: `GGGGGCCACAGCAGAAGCGUUCACGUCGCGGCCCCUGUCAGAUUCUGGUGAAUCUGCGAAUUCUGUUGG`
Solution: High

Exercise: # bin lookup: classify `GGGGGCCACAGCAGAAGCGUUCACGUCGCGGCCCCUGUCAGAUUCUGGUGAAUCUGCGAAUUCUAAUGU` by its self-cleavage
Solution: Mid

Exercise: Assign a category based on measured self-cleavage for `GGGGGCCACAGCAGAAGCGUUCACGUCGCGGCCCCUGUCAGAUUCUGGUGAAUCUGCGAUUUCUGCUGU` and give only the class name.
Solution: Mid

Exercise: Looking at `GGGGGCCAGAGCAGAAGCGUUCACGUCGCGGCCCCUCUCAGAUUCUGGUGAAUCUGCGAAUUCUGCUGU` , which class would you pick?
Solution: Low

Exercise: Categorize the following entry: `GGGGGCCACAGCAGAAGCGUUCACGUCGCGGCCCCUGUCAGGUUCUGGUGAAUCUGCGAAUUCGGCUGU`
Solution: Mid

Exercise: Note: place this variant into its band. Item: `GGGGGCCACAGUAGAAGCGUUCACGUCGCGGCCCCUGUCAGAUUCUGGUGAUUCUGCGAAUUCUGCUGU`
Solution: High

Exercise: Band assignment needed for `AGGGGCCACAGCAGAAGCGUUCACGUCGCGGCCCCUGUCAGAUUCUGGUGCAUCUGCGAAUUCUGCUGU` please.
Solution: Low

Exercise: Field: class (self-cleavage) — entry: `GGGGGCCACAGCAGAAGCGUUCACGUCGCGGCCCCUGUCAGAUUUUGGUGAAUUUGCGAAUUCUGCUGU`
Solution: High

Exercise: Where would `GGGGGCCUCAGCAGAAGCGUUCACGUCGCGGCCCCUGUCAGAUUCUGGUGAAUCUCCGAAUUCUGCUGU` land among the classes by reported self-cleavage?
Solution: Mid

Exercise: Kindly state the category for this variant: `GGGGGCCACAGCAGAAGCGUUCGCGUCGCGGCCCCUGUCAGAUUCUGGUAAAUCUGCGAAUUCUGCUGU`
Solution: High

// provenance: the RNAGym collection of RNA variant scans (doi:10.7554/elife.80360)
